# Measurement Notes: Prodrug activation in human PT37 cells assessed as intracellular cysteamine-CMQT formation per mg protein at 20 uM after 6 hrs by HPLC analysis
# Format: cell-based
# Assay Conditions: pt37, 6 h
Endpoint: Drug metabolism (nmol/mg)
Report the figure in nmol/mg without appending any unit label.

Prompt line: What does the record list as Drug metabolism for Cl.NCCS [CYSTEAMINE HYDROCHLORIDE] ?
Response line: 0.84

* * *

# Test system: HaCaT
# Measurement Notes: Cytotoxicity against human HaCaT cells assessed as reduction in cell viability after 48 hrs by MTT assay
# Format: cell-based
# Assay Conditions: Homo sapiens, HaCaT, 48 h
Quick reference for EC50 among some compounds
Report the figure in µM without appending any unit label.

Reference set, count: 3
{"Structure Notation": "CCCCOC(=O)[C@@H](N)CCC(=O)NCCSC(=O)c1ccccc1", "Target Entity": "HaCaT", "Endpoint": "EC50", "Meas Value": 97}
{"Structure Notation": "CCCOC(=O)[C@@H](N)CCC(=O)NCCSC(=O)C(C)(C)C", "Target Entity": "HaCaT", "Endpoint": "EC50", "Meas Value": 152}
{"Structure Notation": "CCCCOC(=O)[C@@H](N)CCC(=O)NCCSC(C)=O.Cl", "Target Entity": "HaCaT", "Endpoint": "EC50", "Meas Value": 563}

Prompt line: Return EC50 measured with HaCaT given this compound: `CCCOC(=O)[C@@H](N)CCC(=O)NCCSC(=O)c1ccccc1`
Response line: 75

Prompt line: What about this compound? `CCOC(=O)[C@@H](N)CCC(=O)NCCSC(=O)c1ccccc1.Cl`
Response line: 331

Prompt line: What about this compound? `CCOC(=O)[C@@H](N)CCC(=O)NCCSC(C)=O.Cl`
Response line: 1730

Prompt line: What about this compound? `CCCCOC(=O)[C@@H](N)CCC(=O)NCCSC(=O)C(C)(C)C`
Response line: 102

Prompt line: What about this compound? `CCOC(=O)[C@@H](N)CCC(=O)NCCSC(=O)C(C)(C)C.Cl`
Response line: 228

Prompt line: What about this compound? `CCCOC(=O)[C@@H](N)CCC(=O)NCCSC(C)=O.Cl`
Response line: 548

* * *

# Measurement Notes: physchem
# Assay Conditions: octanol/water, pH 2
# Description: Octanol-water partition coefficient, log P of compound at pH 2 to 12 by pH metric analysis
Endpoint: logP

{"Structure Notation": "CCCOC(=O)[C@@H](N)CCC(=O)NCCSC(C)=O.Cl", "Endpoint": "logP", "Meas Value": 0.21}

P: CCOC(=O)[C@@H](N)CCC(=O)NCCSC(=O)c1ccccc1.Cl
Q: CCOC(=O)[C@@H](N)CCC(=O)NCCSC(C)=O.Cl
Prompt line: Given the two records P and Q , choose the one whose logP value is lower. Let me know the label of the one you choose.
Response line: Q

I: CCCCOC(=O)[C@@H](N)CCC(=O)NCCSC(C)=O.Cl
II: CCOC(=O)[C@@H](N)CCC(=O)NCCSC(=O)C(C)(C)C.Cl
Prompt line: Choose between I and II : whose measured logP value is numerically larger? Let me know the label of the one you choose.
Response line: II

* * *

# Measurement Notes: Dissociation constant, pKa of compound at pH 2 to 12 at 1 to 2 mg by potentiometric titration method
# Type: physicochemical
Endpoint: pKa

{"Compound": "CCOC(=O)[C@@H](N)CCC(=O)NCCSC(=O)C(C)(C)C.Cl", "pKa": 8.9}
{"Compound": "CCOC(=O)[C@@H](N)CCC(=O)NCCSC(C)=O.Cl", "pKa": 8.94}
{"Compound": "CCCOC(=O)[C@@H](N)CCC(=O)NCCSC(C)=O.Cl", "pKa": 8.8}
{"Compound": "CCOC(=O)[C@@H](N)CCC(=O)NCCSC(=O)c1ccccc1.Cl", "pKa": 8.85}
{"Compound": "Cl.NCCS [CYSTEAMINE HYDROCHLORIDE]", "pKa": 8.15}
{"Compound": "CCCCOC(=O)[C@@H](N)CCC(=O)NCCSC(C)=O.Cl", "pKa": 8.69}
